# study_system: T1, Dimeric fibrinogen-like domain of mouse (Mus musculus) Ang-2 conjugated to human IgG1 (mouse (Mus musculus))
# T1 construct: also called Dimeric Mouse Ang-2FD; Mouse Ang-2FD-hFc
# T1 sequence (chain, as listed by the source limits assumed): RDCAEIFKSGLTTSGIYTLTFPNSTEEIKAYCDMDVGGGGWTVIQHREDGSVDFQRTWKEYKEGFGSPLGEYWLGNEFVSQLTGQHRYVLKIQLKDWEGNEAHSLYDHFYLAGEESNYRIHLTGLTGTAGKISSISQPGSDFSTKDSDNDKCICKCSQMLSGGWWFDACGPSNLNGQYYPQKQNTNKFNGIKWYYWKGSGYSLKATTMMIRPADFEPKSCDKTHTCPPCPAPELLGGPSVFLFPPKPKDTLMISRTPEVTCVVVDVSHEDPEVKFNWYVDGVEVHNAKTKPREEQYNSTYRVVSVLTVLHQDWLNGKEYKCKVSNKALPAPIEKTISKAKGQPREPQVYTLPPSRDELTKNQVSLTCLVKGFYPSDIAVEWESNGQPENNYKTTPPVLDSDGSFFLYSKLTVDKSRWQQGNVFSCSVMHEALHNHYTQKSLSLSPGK
# experiment_notes: SPR, antibody captured, room temp
Reported T1/2 is given for each of the following binders.
Provide only the numeric value, understood in min.

- binder: "H1M728N (antibody, V domains shown) VH: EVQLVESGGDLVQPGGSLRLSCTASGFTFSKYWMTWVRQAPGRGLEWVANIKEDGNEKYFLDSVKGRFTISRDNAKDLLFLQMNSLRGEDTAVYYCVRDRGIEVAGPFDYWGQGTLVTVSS VL: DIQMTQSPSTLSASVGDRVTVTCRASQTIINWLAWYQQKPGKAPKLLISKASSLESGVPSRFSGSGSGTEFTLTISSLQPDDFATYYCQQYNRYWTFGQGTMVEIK"
  endpoint_unit: "min"
  T1/2: 9.9
- binder: "H1M724N (antibody, V domains shown) VH: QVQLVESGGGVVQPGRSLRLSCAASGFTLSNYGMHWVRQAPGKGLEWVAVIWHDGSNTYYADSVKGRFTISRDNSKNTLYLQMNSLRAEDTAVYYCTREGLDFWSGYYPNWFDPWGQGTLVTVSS VL: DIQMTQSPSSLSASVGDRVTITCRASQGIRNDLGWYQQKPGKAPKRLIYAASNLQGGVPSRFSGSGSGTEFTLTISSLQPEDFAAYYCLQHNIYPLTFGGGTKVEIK"
  endpoint_unit: "min"
  T1/2: 16

Would you kindly look at the next entry?
Item H2M742N (antibody, V domains shown) VH: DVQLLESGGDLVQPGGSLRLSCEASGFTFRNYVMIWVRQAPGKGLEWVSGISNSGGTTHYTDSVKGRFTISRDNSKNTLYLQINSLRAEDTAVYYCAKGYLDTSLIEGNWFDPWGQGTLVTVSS VL: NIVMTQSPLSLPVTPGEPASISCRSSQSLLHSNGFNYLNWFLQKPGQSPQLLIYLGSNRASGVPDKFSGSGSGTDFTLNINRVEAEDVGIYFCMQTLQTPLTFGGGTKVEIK has what recorded T1/2?
30.8
